# tested_on: UniProt:P47898
# Sequence (P47898 whole entry): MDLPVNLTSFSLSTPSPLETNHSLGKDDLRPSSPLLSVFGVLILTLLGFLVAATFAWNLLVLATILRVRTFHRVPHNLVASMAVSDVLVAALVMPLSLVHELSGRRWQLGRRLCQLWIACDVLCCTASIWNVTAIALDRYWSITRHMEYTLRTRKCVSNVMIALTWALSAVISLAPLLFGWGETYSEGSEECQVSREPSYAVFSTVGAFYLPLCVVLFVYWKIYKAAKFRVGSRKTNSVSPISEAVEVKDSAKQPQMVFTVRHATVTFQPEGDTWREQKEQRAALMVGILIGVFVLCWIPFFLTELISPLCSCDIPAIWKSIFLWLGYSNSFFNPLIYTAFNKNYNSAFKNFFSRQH
# experiment_notes: Displacement of [3H]LSD from human recombinant 5-HT5a receptor after 120 mins by scintillation counting analysis
observed_property: IC50 (nM)
The reply should be a number in nM, with the unit left off.

Let me check: CC(C)(C)NS(=O)(=O)c1ccc(-c2sc(C(=O)N[C@H]3C[C@H](C(=O)O)C3)nc2CC2CCCCC2)c2ccccc12 , system UniProt:P47898, measured IC50 is 106

* * *

# tested_on: Nuclear receptor ROR-beta (Homo sapiens)
# Sequence (Q92753 whole entry, the tested form may be a part): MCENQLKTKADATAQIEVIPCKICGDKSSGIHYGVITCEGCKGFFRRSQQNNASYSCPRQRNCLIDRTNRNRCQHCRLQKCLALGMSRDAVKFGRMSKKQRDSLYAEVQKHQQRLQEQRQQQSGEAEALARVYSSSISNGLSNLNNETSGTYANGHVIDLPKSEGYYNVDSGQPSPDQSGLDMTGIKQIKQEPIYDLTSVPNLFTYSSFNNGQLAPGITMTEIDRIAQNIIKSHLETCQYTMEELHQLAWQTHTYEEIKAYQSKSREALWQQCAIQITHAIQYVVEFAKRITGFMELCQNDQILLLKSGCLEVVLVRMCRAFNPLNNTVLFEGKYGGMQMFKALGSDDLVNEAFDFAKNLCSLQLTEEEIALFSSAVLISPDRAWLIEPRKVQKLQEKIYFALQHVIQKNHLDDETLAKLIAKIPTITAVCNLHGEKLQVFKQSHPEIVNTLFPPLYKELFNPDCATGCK
# experiment_notes: Inverse agonist activity at human GAL4 DBD-fused RORbeta LBD (201 to 452 residues) expressed in HEK293T cells assessed as reduction in ROR mediated transcriptional activity after 24 hrs by dual glo luciferase reporter gene assay
observed_property: pIC50
Scale: negative log10 of molar concentration, which is what pIC50 denotes.

According to the records, this molecule CC(C)(C)NS(=O)(=O)c1ccc(-c2sc(C(=O)N[C@H]3C[C@H](C(=O)O)C3)nc2CC2CCCCC2)c2ccccc12 displays pIC50 of 6.79
